target: GlcNAc(b1-2)Gal(b1-3)GalNAc; assay: glycan array binding signal (z-score within array); higher = stronger binding; settings: glycan notation: IUPAC condensed, linker removed
This is one part of a sample in which the strongest signals are shown more often than they occur.
metric: glycan array binding signal (z-score)
Keep it simple and answer with nothing but the number.

Task: Can you look up the measured glycan array binding signal (z-score) of CGL3 (Coprinopsis cinerea) (protein) MGHHHHHHHHSGFHILRLESTVDLSEPLKDNGIIVFQSDKLDLEPSPNLGPTGIDNTNVNLINAKGDVLLHIGIRRRENAFVFNSIPYGESRGPEERIPLEGTFGDRRDPSITVFDHPDRYQIMIDYKTVYYYKKRLEGRCEKVSYKINEGQTPPFSDVLGVTVLYFANVMPRAN for me?
Result: -0.197

Task: Similarly, CTLX (Homo sapiens), Q6UXS0 (protein) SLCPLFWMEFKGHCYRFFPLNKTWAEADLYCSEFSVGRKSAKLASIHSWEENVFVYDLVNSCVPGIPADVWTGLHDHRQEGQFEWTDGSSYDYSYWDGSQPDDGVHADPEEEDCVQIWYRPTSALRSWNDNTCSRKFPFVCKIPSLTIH ?
Result: -0.988

Task: Similarly, UEA-I (Ulex europaeus), P22972 (protein) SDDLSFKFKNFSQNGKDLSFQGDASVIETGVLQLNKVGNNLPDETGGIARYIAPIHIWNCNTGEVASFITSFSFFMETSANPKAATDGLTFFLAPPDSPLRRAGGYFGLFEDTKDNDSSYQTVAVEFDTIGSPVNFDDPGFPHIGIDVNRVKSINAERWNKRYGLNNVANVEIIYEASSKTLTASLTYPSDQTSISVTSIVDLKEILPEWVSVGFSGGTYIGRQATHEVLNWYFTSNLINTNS ?
Result: -0.195

Task: Similarly, Tap1 (Sordaria macrospora), Q50IV4 (protein) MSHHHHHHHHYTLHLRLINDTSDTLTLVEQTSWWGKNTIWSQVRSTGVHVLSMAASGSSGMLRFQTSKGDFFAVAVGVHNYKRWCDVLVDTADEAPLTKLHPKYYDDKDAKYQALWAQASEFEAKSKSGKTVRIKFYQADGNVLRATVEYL ?
Result: 2.86

Task: Similarly, Agalectin (Anopheles gambiae) (protein) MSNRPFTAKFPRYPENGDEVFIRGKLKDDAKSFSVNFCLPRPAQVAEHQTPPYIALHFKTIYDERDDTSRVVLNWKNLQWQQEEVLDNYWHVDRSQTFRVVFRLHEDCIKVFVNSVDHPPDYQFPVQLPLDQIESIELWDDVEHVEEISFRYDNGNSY ?
Result: -1.34

Task: Similarly, Hip/Pap (Homo sapiens), Q06141 (protein) MLPPMALPSVSWMLLSCLMLLSQVQGEEPQRELPSARIRCPKGSKAYGSHCYALFLSPKSWTDADLACQKRPSGNLVSVLSGAEGSFVSSLVKSIGNSYSYVWIGLHDPTQGTEPNGEGWEWSSSDVMNYFAWERNPSTISSPGHCASLSRSTAFLRWKDYNCNVRLPYVCKFTD ?
Result: -0.099

Task: Similarly, OGAA (protein) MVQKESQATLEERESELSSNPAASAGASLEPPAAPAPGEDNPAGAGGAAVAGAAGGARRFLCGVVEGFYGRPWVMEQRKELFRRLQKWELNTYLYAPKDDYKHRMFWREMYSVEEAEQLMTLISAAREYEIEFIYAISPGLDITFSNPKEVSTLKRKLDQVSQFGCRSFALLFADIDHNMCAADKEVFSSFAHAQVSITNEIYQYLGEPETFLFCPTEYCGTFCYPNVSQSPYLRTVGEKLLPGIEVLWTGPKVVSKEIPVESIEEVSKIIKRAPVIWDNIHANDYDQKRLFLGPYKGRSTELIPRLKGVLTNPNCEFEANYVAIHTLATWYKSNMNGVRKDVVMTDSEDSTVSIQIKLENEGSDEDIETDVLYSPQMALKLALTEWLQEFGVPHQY ?
Result: -0.094

Task: Similarly, AT5G24760(45) (Arabidopsis thaliana), Q8LEB2 (protein) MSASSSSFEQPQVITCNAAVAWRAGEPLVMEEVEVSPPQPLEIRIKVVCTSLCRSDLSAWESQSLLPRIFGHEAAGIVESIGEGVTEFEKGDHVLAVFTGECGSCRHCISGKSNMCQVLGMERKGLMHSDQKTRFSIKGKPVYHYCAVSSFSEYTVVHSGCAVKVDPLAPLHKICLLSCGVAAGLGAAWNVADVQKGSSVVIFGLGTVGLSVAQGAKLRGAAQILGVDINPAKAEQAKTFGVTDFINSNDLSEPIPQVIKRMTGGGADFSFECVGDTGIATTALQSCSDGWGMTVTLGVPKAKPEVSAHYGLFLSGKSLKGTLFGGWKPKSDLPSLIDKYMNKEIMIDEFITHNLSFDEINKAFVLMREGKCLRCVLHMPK ?
Result: 2.61

These measurements were taken from the supplement of paper PMC8728848.
